Catalogue of molecules with associated MIC
System: B. subtilis
procedureText: Synergy/antagonism two-drug combination assay, B. subtilis
Format: cell-based, Bacillus subtilis
conditionsUsed: Bacillus subtilis, 24 h, read-out: MIC antibiotic
measurementLabel: MIC (µg/mL)

| molecule | tgt | measurementLabel | measuredNumber |
| --- | --- | --- | --- |
| CN(C)[C@@H]1C(O)=C(C(N)=O)C(=O)[C@@]2(O)C(O)=C3C(=O)c4c(O)cccc4[C@@](C)(O)[C@H]3C[C@@H]12 [Tetracycline, tetracycline] | B. subtilis | MIC | 5 |
| COc1cc(Cc2cnc(N)nc2N)cc(OC)c1OC [Trimethoprim, trimethoprim] | B. subtilis | MIC | 0.5 |
| O=C(N[C@H](CO)[C@H](O)c1ccc([N+](=O)[O-])cc1)C(Cl)Cl [Chloramphenicol, chloramphenicol] | B. subtilis | MIC | 0.5 |
| CN[C@H](CC(C)C)C(=O)N[C@H]1C(=O)N[C@@H](CC(N)=O)C(=O)N[C@H]2C(=O)N[C@H]3C(=O)N[C@H](C(=O)N[C@H](C(=O)O)c4cc(O)cc(O)c4-c4cc3ccc4O)[C@H](O)c3ccc(c(Cl)c3)Oc3cc2cc(c3O[C@@H]2O[C@H](CO)[C@@H](O)[C@H](O)[C@H]2O[C@H]2C[C@](C)(N)[C@H](O)[C@H](C)O2)Oc2ccc(cc2Cl)[C@H]1O [Vancomycin, vancomycin] | B. subtilis | MIC | 0.5 |
| C[C@@H]1O[C@@H]1P(=O)(O)O [Fosfomycin, fosfomycin] | B. subtilis | MIC | 200 |
| CC1(C)S[C@@H]2[C@H](NC(=O)C(C(=O)O)c3ccccc3)C(=O)N2[C@H]1C(=O)O (stereo partly shown) [Carbenicillin, carbenicillin] | B. subtilis | MIC | 5 |
| CC1(C)S[C@@H]2[C@H](NC(=O)[C@H](N)c3ccccc3)C(=O)N2[C@H]1C(=O)O [Ampicillin, ampicillin] | B. subtilis | MIC | 0.5 |
| Cc1cc(NS(=O)(=O)c2ccc(N)cc2)no1 [Sulfamethoxazole, sulfamethoxazole] | B. subtilis | MIC | 200 |
| O=CN(O)CCCP(=O)(O)O [Fosmidomycin, fosmidomycin] | B. subtilis | MIC | 5 |
| CO/N=C(\C(=O)N[C@@H]1C(=O)N2C(C(=O)O)=C(COC(C)=O)CS[C@H]12)c1csc(N)n1 [Cefotaxime, cefotaxime] | B. subtilis | MIC | 2.5 |
